- procedure-summary: growth inhibition of DIPG cells – cell-based, MIPE5.0 library, qHTS (AID 1347068);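 on IC50: cells exposed to compound for 48 hours before viability readout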
- condition-label: SU-DIPG-XXV viability
Records with an inconclusive call do not appear. The source made the active and inactive calls. Cut-off not given; nearly all actives show IC50 up to about 30 µM.
Please state which outcome applies, choosing from active, inactive

Example cases with answers are listed next.
>>> discrete_label("CNC(=O)Cn1cc(-c2ccc3c(c2)C(F)CC32NC(=O)N(CC(=O)N(Cc3ccc(F)cc3)[C@@H](C)C(F)(F)F)C2=O)cn1 (stereo not given in full)")
"inactive"
>>> discrete_label("CN(C(=O)c1ccc(F)cc1C(F)(F)F)C1CCN(c2nnc(-c3ccnn3C)c3ccccc23)CC1")
"inactive"

Query string: Each compound tested received a call. Report the one for Cc1cc(N2CCOCC2)ccc1Nc1nc(NC2CCCCC2)c2[nH]cnc2n1 .
Result string: active

Query string: Also check Nc1nccc(-c2c(-c3ccc(F)cc3)ncn2C2CCN(Cc3ccon3)CC2)n1
Result string: inactive

Query string: Also check CN1CCN(Cc2ccc(Nc3ncc(Cl)c(Nc4ccccc4S(=O)(=O)N(C)C)n3)cc2)CC1
Result string: active

Query string: Also check Cc1cnc(Nc2ccc(N3CCN(C)CC3)cc2)nc1Nc1cccc(S(=O)(=O)NC(C)(C)C)c1
Result string: active

Entry source: PubChem BioAssay
